- Assay system: dGA (tau 297-390) (human, UniProt P10636 614-707)
- Sequence (P10636 614-707 limits assumed): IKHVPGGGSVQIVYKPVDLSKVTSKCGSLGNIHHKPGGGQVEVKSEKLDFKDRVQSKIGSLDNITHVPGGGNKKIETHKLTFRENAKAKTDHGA
- Test method notes: SPR, scAb captured, tau analyte

# Binder, Measurement units, koff
rows = [
    ("S1G2 scAb (scFv, not shown: small tags and cut ends, scAb) scFv: QVQLQESGPSLVKPSQTLSLTCTVSGFSLTSNSVGWVRQAPGKAPEWVAGIDTDGEEGYNPALNSRLSITRDTSKSQVSLSLSSVTSEDTAVYYCGRSYRADGLAYGYVQAIDYWGPGLLVTVSSEGKSSGASGESKVDDQAVVTQPSSVSGSLGQRVSITCSGSFIGISSVGWFQQLPGSGLRTIIVASDGRPSGVPDRFSMSKSGNTATLTISSLQAEDEADYFCGSSDRTPYTGVFGSGTRLTVLG", "s⁻¹", 0.00035),
    ("NS2A1 scAb (scFv, not shown: small tags and cut ends, scAb) scFv: QVQLQESGPSLVKPSQTLSLTCTVSGFSLSTNSVGWVRQAPGKAPEWVAGIDTDGEEGFNPVLKSRLSITRDTSKSQVSLSLSNVTSEDTAVYYCGRSYRTDGLAYGYVQAIDYWGPGLLVTISSEGKSSGASGESKVDDQSVLTQPSSVSGSPGQTVSITCSGSYIGSSGVGWFQQLPGSGLRTIIVASDGRPSGVPDGFSMSKSGNTATLTISSLQAEDEADYFCGSSDRTQYTGLFGSGTRLTVLG", "s⁻¹", 0.00102),
    ("E1B8 scAb (scFv, not shown: small tags and cut ends, scAb) scFv: QVQLQESGPSLVKPSQTLSLTCTVSGFSLTNYPVGWVRQAPGKALEWIGNIENDGSANYASALKSRLSITRDTSKNQVSLSLSSATTEDTAVYYCGREFGGSDGYTYFVDIDYWGPGLLVTVSSEGKSSGASGESKVDDQAVLTQPSSVSKSLGQSVSITCSGSSSNVGYGNYVSWFQQVPGSAPKILIYGATSRASGVPDRFSGSRSGNTATLTITSLQAEDEADYYCASYDGSSSGVFGSGTRLTVLG", "s⁻¹", 0.00242),
    ("S1D12 scAb (scFv, not shown: small tags and cut ends, scAb) scFv: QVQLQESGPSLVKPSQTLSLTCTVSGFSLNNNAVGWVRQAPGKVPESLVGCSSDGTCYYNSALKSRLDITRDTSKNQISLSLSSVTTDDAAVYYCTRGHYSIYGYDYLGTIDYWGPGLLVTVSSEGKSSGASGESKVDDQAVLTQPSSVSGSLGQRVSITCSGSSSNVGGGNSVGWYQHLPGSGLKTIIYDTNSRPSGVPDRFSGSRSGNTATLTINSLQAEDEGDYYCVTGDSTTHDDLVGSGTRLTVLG", "s⁻¹", 0.000418),
]
